Taken from ChEMBL document CHEMBL1201862.

system: HT-29; test: NCI tumour cell line growth inhibition, 48 h
Calls of active or inactive are those of the source. No stated cut-off is given here; in the data, active = GI50 up to about 1.1 µM and inactive = higher.
GI50 values for the molecules below.

Worked examples, 5 molecules total:
{"MOLECULE": "CC12CCC(/C(=N/c3ccc([N+](=O)[O-])cc3)C1=O)C2(C)C (stereo unspecified)", "ASSAY_RESULT": "21 µM (inactive)"}
{"MOLECULE": "Cc1cc(NCCCCCCCNc2cc(C)nc3cc([N+](=O)[O-])ccc23)c2ccc([N+](=O)[O-])cc2n1", "ASSAY_RESULT": "2.53 µM (inactive)"}
{"MOLECULE": "Nc1nc(S)c2c(N)n[nH]c2c1C(=O)Nc1ccccc1", "ASSAY_RESULT": "> 100 µM (inactive)"}
{"MOLECULE": "CC(C)(C)CI", "ASSAY_RESULT": "> 10 µM (inactive)"}
{"MOLECULE": "CCOC(=O)C(Cc1ccc(O)cc1)Nc1nc(=O)c2c(=O)oc(Cl)cc2o1 (stereo unspecified)", "ASSAY_RESULT": "3.52 µM (inactive)"}

In the following, a different molecule is considered.
response.value for c1coc(C2=Nc3cccc4cccc(c34)N2)c1 (field: GI50) = 23.2 µM (inactive)

---

test system: MDA-N; assay: NCI tumour cell line growth inhibition, 48 h
Calls of active or inactive are those of the source. No stated cut-off is given here; in the data, active = GI50 up to about 1.1 µM and inactive = higher.
API: response.call in t (active), f (inactive)

Entry CCOC(=O)C1=CC(C)(C(=O)OCC)Nc2c(nc(N)[nH]c2=O)N1 (centres undefined) : call = ?
f

Entry CN(C)C(=S)/N=c1\ssc(=S)n1Cc1ccccc1 : call = ?
t

---

GI50 values for the compounds below.
test system: Hs-578T; experiment: NCI tumour cell line growth inhibition, 48 h
Calls of active or inactive are those of the source. Cut-off read from the data, not from the text of the source: active = GI50 up to about 1.1 µM and inactive = higher.

Worked examples, 4 compounds total:
{"MOL_SMILES": "Cc1cc(C(F)(F)F)cc(-n2nc(NS(=O)(=O)c3cc(C)c(Cl)cc3S)nc2N)n1", "GI50": "41 µM (inactive)"}
{"MOL_SMILES": "N[C@@H](Cc1ccc2oc3cc(=O)c4ccccc4c-3nc2c1)C(=O)O", "GI50": "45.8 µM (inactive)"}
{"MOL_SMILES": "Cc1nc(C(N)=S)sc1C(=O)CC(=O)C(=O)Nc1cccc(Cl)c1C", "GI50": "> 100 µM (inactive)"}
{"MOL_SMILES": "N=C(N)N/N=C/c1c(-c2ccccc2)nc2ccn3c(/C=N/N=C(N)N)c(-c4ccccc4)nc3n12", "GI50": "39.5 µM (inactive)"}

In the following, a different compound is considered.
Record O=[N+]([O-])c1ccc(Sc2c3ccccc3nc3ccccc23)nc1 / Hs-578T, GI50 recorded as 19.4 µM (inactive)

---

test system: MDA-N; assay: NCI tumour cell line growth inhibition, 48 h
Activity calls are given as the source filed them. Rule as the data show it: active = GI50 up to about 1.1 µM and inactive = higher.
GI50 values for the compounds below.

{"COMPOUND": "O=c1[nH]nc(Cc2ccc(Cl)cc2)n1/N=C\\c1ccc(/C=N/n2c(Cc3ccc(Cl)cc3)n[nH]c2=O)cc1", "GI50": "> 100 µM (inactive)"}
{"COMPOUND": "NC(Cc1cc(I)c(Oc2ccc(O)c(I)c2)c(I)c1)C(=O)O (centres undefined)", "GI50": "> 100 µM (inactive)"}
{"COMPOUND": "Cc1csc2c(=O)n(C3OC(CO)C(O)C3O)c(=O)[nH]c12 (centres undefined)", "GI50": "> 100 µM (inactive)"}
{"COMPOUND": "COc1cc(NS(C)(=O)=O)ccc1N1Cc2c[nH]c3ccc4nc(C)cc1c4c23", "GI50": "19.6 µM (inactive)"}
{"COMPOUND": "S=C(N/N=C(/c1ccccc1)c1ccccn1)N1CCCCC1", "GI50": "< 0.038 µM (active)"}
{"COMPOUND": "COC(=O)C(Cc1ccccc1I)C1=CCC2(CC1)OCCO2 (centres undefined)", "GI50": "28.6 µM (inactive)"}

response.value for CNC1Cc2c[nH]c3cccc(c23)C12C=C(C)C(=O)O2 (centres undefined) (field: GI50) = > 100 µM (inactive)

response.value for CO/C(N)=C(C#N)/N=C/c1ccccc1 (field: GI50) = > 100 µM (inactive)

---

system: NCI-H522; experiment: NCI tumour cell line growth inhibition, 48 h
Active and inactive are the calls of the source. No stated cut-off is given here; in the data, active = GI50 up to about 1.1 µM and inactive = higher.
API: response.call in Yes (active), No (inactive)

Observe how each entry below is paired with its result.
{"MOL_SMILES": "O=C(CCn1ccnc1[N+](=O)[O-])NCCCn1ccnc1[N+](=O)[O-]", "EXPERIMENTAL_SYSTEM": "NCI-H522", "ASSIGNED_CLASS": "No"}
{"MOL_SMILES": "CCOc1cc2c(OCc3ccccc3)cc3c4cc(OC)c(OC)cc4c[n+](C)c3c2cc1OC", "EXPERIMENTAL_SYSTEM": "NCI-H522", "ASSIGNED_CLASS": "Yes"}
{"MOL_SMILES": "Cc1cc(N2CCN(C)CC2)n2nc(-c3ccc(Cl)cc3)nc2n1", "EXPERIMENTAL_SYSTEM": "NCI-H522", "ASSIGNED_CLASS": "No"}
{"MOL_SMILES": "O=C(O)c1ccc([Se][Se]c2ccc(C(=O)O)cc2)cc1", "EXPERIMENTAL_SYSTEM": "NCI-H522", "ASSIGNED_CLASS": "No"}
{"MOL_SMILES": "CN1CCCN2CCN(C)CCCN(CC1)CC2", "EXPERIMENTAL_SYSTEM": "NCI-H522", "ASSIGNED_CLASS": "No"}

Entry C/C=C/[C@@H]1[C@H]2C(=O)[C@]3(Cl)[C@@H](/C=C/C)[C@@H]3C(=O)[C@@]12Cl : call = ?
No

---

tested on: SR; assay: NCI tumour cell line growth inhibition, 48 h
Active and inactive are the calls of the source. No stated cut-off is given here; in the data, active = GI50 up to about 1.1 µM and inactive = higher.
API: response.call in Yes (active), No (inactive)

Observe how each entry below is paired with its result.
{"COMPOUND": "COc1c(O)ccc2c1CN1CCc3cc4c(cc3C1C2)OCO4 (stereo unspecified)", "ASSIGNED_CLASS": "Yes"}
{"COMPOUND": "COc1c(C)c(C/C=C(\\C)CCCCO)c(OC)c(OC)c1OC", "ASSIGNED_CLASS": "No"}
{"COMPOUND": "Cn1c2cc(Cl)ccc2c2ccc3c(c21)C(=O)C=CC3=O", "ASSIGNED_CLASS": "No"}
{"COMPOUND": "CC(C)C(=O)NC(=S)Nc1ccc([N+](=O)[O-])cc1C#N", "ASSIGNED_CLASS": "No"}
{"COMPOUND": "O=C(c1ccc2ccccc2c1)C1S(=O)(=O)OCCOS1(=O)=O", "ASSIGNED_CLASS": "No"}

# evaluate next
Entry COc1cc(C(C#N)NNC(=O)Cc2ccccc2)cc(OC)c1OC (stereo unspecified) : call = ?
No

---

test system: K562; assay: NCI tumour cell line growth inhibition, 48 h
Active and inactive are the calls of the source. No stated cut-off is given here; in the data, active = GI50 up to about 1.1 µM and inactive = higher. Peptide text beside a SMILES is read from it. * marks the point of attachment. Boc = CC(C)(C)OC(=O)*; OBn = c1ccc(CO*)cc1
MEASURED_ATTRIBUTE: GI50

Worked examples, 5 molecules total:
{"MOLECULE": "CCCC(=O)Nc1cc(/C=C/C(=O)N2CC(CCl)c3ccc([N+](=O)[O-])cc32)n(C)c1 (stereo unspecified)", "ASSAY_RESULT": "> 100 µM (inactive)"}
{"MOLECULE": "O=C1/C(=C/c2ccc(Cl)cc2)COc2ccc(Br)cc21", "ASSAY_RESULT": "> 100 µM (inactive)"}
{"MOLECULE": "Cc1nc(C(N)=S)sc1C(=O)CC(=O)C(=O)Nc1cccc(Cl)c1C", "ASSAY_RESULT": "> 100 µM (inactive)"}
{"MOLECULE": "O=C1CCC2(c3ccccc3)OCC([C@@H](O)c3ccccc3)N12 (stereo partly specified)", "ASSAY_RESULT": "> 100 µM (inactive)"}
{"MOLECULE": "Cc1ccccc1C1CC(=O)CC(c2ccccc2C)C12C(=O)NC(=S)NC2=O (stereo unspecified)", "ASSAY_RESULT": "39.5 µM (inactive)"}

response.value for CC(C)CC(NC(=O)OC(C)(C)C)C(=O)NC(CC(=O)OCc1ccccc1)C(N)=O (stereo not drawn) (Boc-Leu-Asp(OBn)-NH2; configuration not given here) (field: GI50) = > 100 µM (inactive)

response.value for CNc1nc(SC)nc2c1c(N)nn2C (field: GI50) = > 100 µM (inactive)

response.value for O=C(O)c1nc2ccc(C(F)(F)F)cc2nc1NCc1ccc(F)cc1 (field: GI50) = 19.6 µM (inactive)
